src = patent US20130237582A1

# Tested on: T47-D
# Protocol description: Cytotoxicity assay using propidium iodide (PI)
# Format: cell-based
# Experimental parameters: Homo sapiens, T47D
Quantity: IC50 (nM)
Give bare numbers, in nM.

# input Consider the compound CN1CC[C@@H](c2c(O)cc(O)c3c(=O)cc(-c4ccccc4Cl)oc23)[C@@H]1CO.Cl [Compound A, hydrochloride] tested on T47-D; state its IC50.
# output 500
